# measurement.protocol: Compound was evaluated for the binding strength to receptor Mimetic peptide (RMP) at 5 degree celsius, Ki was determined from its potency in displacing [Leu]-enkephalin binding.
Residues, ends and D or L forms follow the SMILES beside them. *: point of attachment. Desaminotyrosyl = O=C(CCc1ccc(O)cc1)*; Hydrocinnamoyl = O=C(CCc1ccccc1)*
Strictly below 400 µM in Ki: Yes. Otherwise: No.

compound: N=C(N)NCCC[C@H](NC(=O)[C@H](Cc1ccccc1)NC(=O)[C@@H](N)Cc1cnc[nH]1)C(=O)N[C@@H](Cc1c[nH]c2ccccc12)C(=O)O
class: No
//
compound: CC(C)C[C@H](NC(=O)[C@H](Cc1ccccc1)NC(=O)CNC(=O)CNC(=O)CCc1ccccc1)C(=O)O (Hydrocinnamoyl-GGFL-OH)
class: No
//
compound: CC(C)C[C@H](NC(=O)[C@H](Cc1ccccc1)NC(=O)CNC(=O)CNC(=O)CCc1ccc(O)cc1)C(=O)O (Desaminotyrosyl-GGFL-OH)
class: Yes
//
compound: CC(C)C[C@H](NC(=O)[C@H](Cc1ccccc1)NC(=O)CNC(=O)[C@@H](N)Cc1ccc(O)cc1)C(=O)O
class: Yes
//
compound: CSCC[C@H](NC(=O)[C@H](Cc1ccccc1)NC(=O)CNC(=O)CNC(=O)[C@@H](N)Cc1ccc(O)cc1)C(=O)O
class: Yes
//
compound: C=CCN1CC[C@]23c4c5ccc(O)c4O[C@H]2C(=O)CC[C@@]3(O)[C@H]1C5
class: No
//
compound: CC(C)C[C@H](NC(=O)[C@H](Cc1ccccc1)NC(=O)CNC(=O)CNC(=O)[C@H](N)Cc1ccccc1)C(=O)O
class: Yes
